Target: T1, biotinylated hOX40L (R&D Systems, biotinylated in house) (human, UniProt P23510 51-183, biotinylated with Sulfo-NHS-LC-Biotin, sites not stated)
T1 construct: same bought protein as m10, biotinylated; also called biotinylated OX40L
T1 sequence: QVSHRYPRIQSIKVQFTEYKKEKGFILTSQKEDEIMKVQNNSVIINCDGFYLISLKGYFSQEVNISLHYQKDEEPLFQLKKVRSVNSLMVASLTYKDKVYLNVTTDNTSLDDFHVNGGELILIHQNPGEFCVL
Experiment: hOX40L/hOX40 AlphaScreen, assay 3, heated at Tm+10 C
Exercise: state measured pIC50 for each of the binders provided.
Give bare numbers, as −log10 of the molar value.

Please give pIC50, item by item, for the list that follows.
1. OX40L054 (VHH, not shown: small tags and cut ends) VHH: DVQLVESGGGLVQPGGSLRLSCAASRSIGRLDRMGWYRHRTGEPRELVATITGGSSINYGDFVKGRFTISRDNAKNTVYLQMNSLRPEDTAVYYCNFNKYVTSRDTWGQGTLVTVSS
2. OX40L053 (VHH, not shown: small tags and cut ends) VHH: DVQLVESGGGLVQPGGSLRLSCAASRSIGRLDRMGWYRHRTGEPRELVATITGGSSINYGDFVKGRFTISIDNSKNTVYLQMNSLRPEDTAVYYCNFNKYVTSRDTWGQGTLVTVSS
3. OX40L055 (VHH, not shown: small tags and cut ends) VHH: DVQLVESGGGLVQPGGSLRLSCAASRSIGRLDRMGWYRHRTGEPRELVATITGGSSINYGDFVKGRFTISRDNSKNTVYLQMNNLRPEDTAVYYCNFNKYVTSRDTWGQGTLVTVSS

Result block:
1: 10.03; 2: 9.90; 3: 9.97
